Ref: ChEMBL document CHEMBL1158168

inhibition in vivo listing for selected compounds.
# System: Rattus norvegicus
# test_protocol: Antiinflammatory activity in Wistar albino rat assessed as inhibition of carrageenan-induced paw edema administered at equimolar oral dose relative to 70 mg/kg ibuprofen measured 4 hrs after carrageenan challenge
# Assay type: functional
reported_property: inhibition in vivo (%)

{"compound": "CC(C)Cc1ccc(C(C)c2nnc3sc(-c4ccc(Cl)cc4Cl)nn23)cc1 (stereo not drawn)", "result_number": 80.3}
{"compound": "Cc1ccc(Nc2nn3c(C(C)c4ccc(CC(C)C)cc4)nnc3s2)c(C)c1 (stereo not drawn)", "result_number": 53}
{"compound": "CC(C)Cc1ccc(C(C)c2nnc3sc(-c4ccccc4N)nn23)cc1 (stereo not drawn)", "result_number": 57.6}
